Listed molecules paired with reported pIC50
Target: human GnRH receptor (Homo sapiens, UniProt P30968)
Construct: line established by Prof; Thomas Gudermann
Assay: IP-One HTRF assay (inhibition of GnRH-R activation by buserelin)
Conditions: IP-One HTRF assay with buserelin (at EC80) stimulation; CHO cells stably expressing human GnRH receptor; tested 20 µM to 1 nM; read-out: Potency IC50
Description: By using homogenous time-resolved fluorescence resonance energy transfer (HTRF), the generation of one component of the GnRH-R signalling cascade can be measured. […] In cell lysates, IP1 can be detected via an antibody-based HTRF detection technology, where IP1 can displace the FRET acceptor IP1-d2 from binding by Terbium-labelled anti-IP1 antibody as donor resulting in a signal decrease. […]
Units for pIC50: none; it is -log10 of a concentration expressed in mol/L.

Example molecules with recorded pIC50:
COC(=O)c1cccc(NC(=O)c2ccc3c(c2)C2(CCC(O)(C(F)(F)F)CC2)C(C2CC2)N3S(=O)(=O)c2ccc(F)cc2)c1 (single isomer, unassigned) [Example 30-2]    5.80
O=C(NCc1ccccc1Cl)c1ccc2c(c1)C1(CCC(O)(C(F)(F)F)CC1)C(C1CC1)N2S(=O)(=O)c1ccc(F)cc1 (single isomer, unassigned) [Example 62-2]    5.48
CC(C)=CCC1N(S(=O)(=O)c2ccc(F)cc2)c2ccc(C(=O)NCc3ccccc3Cl)cc2C12CCC(O)(C(F)(F)F)CC2 (stereo not drawn)    6.13
Cc1cccc(NC(=O)c2ccc3c(c2)C2(CCC(O)(C(F)(F)F)CC2)C(C2CC2)N3S(=O)(=O)c2ccc(F)cc2)c1 (stereo not drawn)    6.10
COC(=O)c1cccc(NC(=O)c2ccc3c(c2)C2(CCC(O)(C(F)(F)F)CC2)C(C2CC2)N3S(=O)(=O)c2cccc(OC)c2)c1 (stereo not drawn)    6.17

Could you now look at the following molecule, please?
Looking up COC(=O)c1cccc(S(=O)(=O)N2c3ccc(C(=O)Nc4ccon4)cc3C3(CCC(O)(C(F)(F)F)CC3)C2C2CC2)c1 (stereo not drawn) , I found its pIC50 recorded as 5.95

* * *

Listed compounds paired with reported log10(IC50)
Molecular target: human GnRH receptor (Homo sapiens, UniProt P30968)
Construct: line established by Prof; Thomas Gudermann
Assay: IP-One HTRF assay (inhibition of GnRH-R activation by buserelin)
Conditions: IP-One HTRF assay with buserelin (at EC80) stimulation; CHO cells stably expressing human GnRH receptor; tested 20 µM to 1 nM; read-out: Potency IC50
# values: log10(IC50), units nM

Example compounds with recorded log10(IC50):
COc1cccc(S(=O)(=O)N2c3ccc(C(=O)Nc4cncc(C)c4)cc3C3(CCC(O)(C(F)(F)F)CC3)C2C2CC2)c1 (stereo not shown)    3.23
NS(=O)(=O)c1cccc(NC(=O)c2ccc3c(c2)C2(CCC(O)(C(F)(F)F)CC2)C(C2CC2)N3S(=O)(=O)c2ccc(F)cc2)c1 (stereo not shown)    2.79
O=C1CCC2(CC1)c1cc(C(=O)NCc3ccccc3Cl)ccc1N(S(=O)(=O)c1ccc(F)cc1)C2C1CC1 (racemic) [Example 3]    1.67
O=C(Nc1ccon1)c1ccc2c(c1)C1(CCC(O)(C(F)(F)F)CC1)C(C1CC1)N2S(=O)(=O)c1cccc(C(=O)N2CCC2)c1 (stereo not shown)    3.09

Looking up O=C(NCC1CCCCC1)c1ccc2c(c1)C1(CCC(O)(C(F)(F)F)CC1)C(C1CC1)N2S(=O)(=O)c1ccc(F)cc1 (stereo not shown) , I found its log10(IC50) recorded as 2.87

Looking up CC1N(S(=O)(=O)c2ccc(F)cc2)c2ccc(C(=O)NCc3ccccc3Cl)cc2C12CCC(O)(C(F)(F)F)CC2 (stereo not shown) , I found its log10(IC50) recorded as 2.64

Looking up O=C1CCC2(CC1)c1cc(C(=O)NCc3ccccc3Cl)ccc1N(S(=O)(=O)c1ccc(F)cc1)C2C1CC1 (single isomer, unassigned) [Example 3-2] , I found its log10(IC50) recorded as 3.01

Looking up COc1cccc(S(=O)(=O)N2c3ccc(C(=O)NCc4ncccc4C(F)(F)F)cc3C3(CCC(O)(C(F)(F)F)CC3)C2C2CC2)c1 (stereo not shown) , I found its log10(IC50) recorded as 2.61

Looking up CC(C)=CCC1N(S(=O)(=O)c2ccc(F)cc2)c2ccc(C(=O)Nc3cncc(C(F)(F)F)c3)cc2C12CCC(O)(C(F)(F)F)CC2 (stereo not shown) , I found its log10(IC50) recorded as 3.97

Looking up O=C(NC1(c2ccc(Cl)cc2)CC1)c1ccc2c(c1)C1(CCC(O)(C(F)(F)F)CC1)C(C1CC1)N2S(=O)(=O)c1ccc(F)cc1 (stereo not shown) , I found its log10(IC50) recorded as 2.74

Looking up CC(C)=CCC1N(S(=O)(=O)c2ccc(F)cc2)c2ccc(C(=O)Nc3cccc(C(=O)O)c3)cc2C12CCC(O)(C(F)(F)F)CC2 (stereo not shown) , I found its log10(IC50) recorded as 2.81

Looking up COc1cccc(S(=O)(=O)N2c3ccc(C(=O)Nc4cncc(C(F)(F)F)c4)cc3C3(CCC(O)(C(F)(F)F)CC3)C2C2CC2)c1 (stereo not shown) , I found its log10(IC50) recorded as 3.75

Looking up O=C(NCc1ccccc1Cl)c1ccc2c(c1)C1(CCC(F)(F)CC1)C(C1CC1)N2S(=O)(=O)c1ccc(F)cc1 (stereo not shown) , I found its log10(IC50) recorded as 2.69

* * *

Listed molecules paired with reported IC50
Target: human GnRH receptor (Homo sapiens, UniProt P30968)
Construct: line established by Prof; Thomas Gudermann
Test: IP-One HTRF assay (inhibition of GnRH-R activation by buserelin)
Conditions: IP-One HTRF assay with buserelin (at EC80) stimulation; CHO cells stably expressing human GnRH receptor; tested 20 µM to 1 nM; read-out: Potency IC50
Respond with the bare value in nM.

Example molecules with recorded IC50:
CC(C)=CCC1N(S(=O)(=O)c2ccc(F)cc2)c2ccc(C(=O)NCc3ncccc3C(F)(F)F)cc2C12CCC(O)(C(F)(F)F)CC2 (stereo not shown)    713
CS(=O)(=O)c1cccc(NC(=O)c2ccc3c(c2)C2(CCC(O)(C(F)(F)F)CC2)C(C2CC2)N3S(=O)(=O)c2ccc(F)cc2)c1 (stereo not shown)    540
O=C(NCC1CC1)c1ccc2c(c1)C1(CCC(O)(C(F)(F)F)CC1)C(C1CC1)N2S(=O)(=O)c1ccc(F)cc1 (stereo not shown)    690
O=C(Nc1ccon1)c1ccc2c(c1)C1(CCC(O)(C(F)(F)F)CC1)C(C1CC1)N2S(=O)(=O)c1ccc(F)cc1 (single isomer, unassigned) [Example 56-2]    17400
CC(C)=CCC1N(S(=O)(=O)c2ccc(F)cc2)c2ccc(C(=O)Nc3ncco3)cc2C12CCC(O)(C(F)(F)F)CC2 (stereo not shown)    655
COC(=O)c1cccc(S(=O)(=O)N2c3ccc(C(=O)NCc4ncccc4Cl)cc3C3(CCCCC3)C2C2CC2)c1 (stereo not shown)    1220

Looking up O=C(O)c1cccc(S(=O)(=O)N2c3ccc(C(=O)NCc4ncccc4C(F)(F)F)cc3C3(CCC(O)(C(F)(F)F)CC3)C2C2CC2)c1 (stereo not shown) , I found its IC50 recorded as 3070

Looking up COc1cccc(S(=O)(=O)N2c3ccc(C(=O)NCc4ncccc4Cl)cc3C3(CCC(O)(C(F)(F)F)CC3)C2C2CC2)c1 (stereo not shown) , I found its IC50 recorded as 756

* * *

Listed compounds paired with reported IC50
Target: human GnRH receptor (Homo sapiens, UniProt P30968)
Construct: line established by Prof; Thomas Gudermann
Experiment: IP-One HTRF assay (inhibition of GnRH-R activation by buserelin)
Conditions: IP-One HTRF assay with buserelin (at EC80) stimulation; CHO cells stably expressing human GnRH receptor; tested 20 µM to 1 nM; read-out: Potency IC50
Respond with the bare value in nM.

Example compounds with recorded IC50:
CC(C)=CCC1N(S(=O)(=O)c2ccc(F)cc2)c2ccc(C(=O)Nc3cc[nH]n3)cc2C12CCC(O)(C(F)(F)F)CC2 (stereo not drawn)    1420
O=C(NCc1ncccc1Cl)c1ccc2c(c1)C1(CCC(O)(C(F)(F)F)CC1)C(C1CC1)N2S(=O)(=O)c1ccc(F)cc1 (racemic) [Example 1]    354

Could you now look at the following compound, please?
Looking up COC(=O)c1cccc(S(=O)(=O)N2c3ccc(C(=O)NCc4ccccc4Cl)cc3C3(CCCCC3)C2C2CC2)c1 (stereo not drawn) , I found its IC50 recorded as 2290

* * *

Target: human GnRH receptor (Homo sapiens)
Construct: line established by Prof; Thomas Gudermann
Sequence (P30968 1-328): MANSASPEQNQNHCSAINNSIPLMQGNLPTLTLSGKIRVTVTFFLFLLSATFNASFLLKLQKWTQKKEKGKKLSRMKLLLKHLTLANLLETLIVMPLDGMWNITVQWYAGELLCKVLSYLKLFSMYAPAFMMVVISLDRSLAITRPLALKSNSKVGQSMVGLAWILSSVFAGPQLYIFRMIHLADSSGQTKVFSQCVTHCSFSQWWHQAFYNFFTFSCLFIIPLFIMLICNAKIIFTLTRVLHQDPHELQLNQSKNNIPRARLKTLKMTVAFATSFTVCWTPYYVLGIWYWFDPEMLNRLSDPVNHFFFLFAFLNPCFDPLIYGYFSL
Assay: IP-One HTRF assay (inhibition of GnRH-R activation by buserelin)
Conditions: IP-One HTRF assay with buserelin (at EC80) stimulation; CHO cells stably expressing human GnRH receptor; tested 20 µM to 1 nM; read-out: Potency IC50
Listed compounds paired with reported pIC50
Units for pIC50: none; it is -log10 of a concentration expressed in mol/L.

O=C(O)c1cccc(S(=O)(=O)N2c3ccc(C(=O)NCc4ccccc4Cl)cc3C3(CCCCC3)C2C2CC2)c1 (stereo not drawn) [Example 10]    6.09

Looking up COc1cccc(S(=O)(=O)N2c3ccc(C(=O)Nc4cccc(C(=O)O)c4)cc3C3(CCC(O)(C(F)(F)F)CC3)C2C2CC2)c1 (stereo not drawn) [Example 35] , I found its pIC50 recorded as 5.86

Looking up O=C(Nc1ccon1)c1ccc2c(c1)C1(CCC(O)(C(F)(F)F)CC1)C(C1CC1)N2S(=O)(=O)c1ccc(F)cc1 (single isomer, unassigned) [Example 56-1] , I found its pIC50 recorded as 6.67

Looking up COC(=O)c1cccc(S(=O)(=O)N2c3ccc(C(=O)NCc4ncc(C(F)(F)F)cc4F)cc3C3(CCC(O)(C(F)(F)F)CC3)C2C2CC2)c1 (stereo not drawn) [Example 28] , I found its pIC50 recorded as 5.75

Looking up O=C(Nc1cccc(Cl)c1)c1ccc2c(c1)C1(CCC(O)(C(F)(F)F)CC1)C(C1CC1)N2S(=O)(=O)c1ccc(F)cc1 (stereo not drawn) [Example 55] , I found its pIC50 recorded as 6.15

Looking up Cc1cncc(NC(=O)c2ccc3c(c2)C2(CCC(O)(C(F)(F)F)CC2)C(C2CC2)N3S(=O)(=O)c2ccc(F)cc2)c1 (stereo not drawn) [Example 25] , I found its pIC50 recorded as 6.25
